Ref: ChEMBL document CHEMBL4680310

test: Half life in Sprague Dawley rat at 1 mg/kg, iv by LC-MS/MS analysis; assay type: ADME, organism-based; conditions: in vivo
OBSERVABLE: half-life (h)
Give bare numbers, in h.

IN: Sample `Cc1ncccc1C(=O)N([C@@H]1CCc2c(F)cc(Cl)cc21)[C@@H](C(N)=O)c1ccccc1` — what was its half-life?
OUT: 1.07

----------
biological target: Transient receptor potential cation channel subfamily M member 8 (Rattus norvegicus, UniProt Q8R455); assay: Antagonist activity at rat TRPM8 transfected in HEK293T cells assessed as reduction in menthol-induced calcium influx measured after 60 mins by Fluo-4 AM dye based fluorescence analysis
Sequence (Q8R455 whole entry): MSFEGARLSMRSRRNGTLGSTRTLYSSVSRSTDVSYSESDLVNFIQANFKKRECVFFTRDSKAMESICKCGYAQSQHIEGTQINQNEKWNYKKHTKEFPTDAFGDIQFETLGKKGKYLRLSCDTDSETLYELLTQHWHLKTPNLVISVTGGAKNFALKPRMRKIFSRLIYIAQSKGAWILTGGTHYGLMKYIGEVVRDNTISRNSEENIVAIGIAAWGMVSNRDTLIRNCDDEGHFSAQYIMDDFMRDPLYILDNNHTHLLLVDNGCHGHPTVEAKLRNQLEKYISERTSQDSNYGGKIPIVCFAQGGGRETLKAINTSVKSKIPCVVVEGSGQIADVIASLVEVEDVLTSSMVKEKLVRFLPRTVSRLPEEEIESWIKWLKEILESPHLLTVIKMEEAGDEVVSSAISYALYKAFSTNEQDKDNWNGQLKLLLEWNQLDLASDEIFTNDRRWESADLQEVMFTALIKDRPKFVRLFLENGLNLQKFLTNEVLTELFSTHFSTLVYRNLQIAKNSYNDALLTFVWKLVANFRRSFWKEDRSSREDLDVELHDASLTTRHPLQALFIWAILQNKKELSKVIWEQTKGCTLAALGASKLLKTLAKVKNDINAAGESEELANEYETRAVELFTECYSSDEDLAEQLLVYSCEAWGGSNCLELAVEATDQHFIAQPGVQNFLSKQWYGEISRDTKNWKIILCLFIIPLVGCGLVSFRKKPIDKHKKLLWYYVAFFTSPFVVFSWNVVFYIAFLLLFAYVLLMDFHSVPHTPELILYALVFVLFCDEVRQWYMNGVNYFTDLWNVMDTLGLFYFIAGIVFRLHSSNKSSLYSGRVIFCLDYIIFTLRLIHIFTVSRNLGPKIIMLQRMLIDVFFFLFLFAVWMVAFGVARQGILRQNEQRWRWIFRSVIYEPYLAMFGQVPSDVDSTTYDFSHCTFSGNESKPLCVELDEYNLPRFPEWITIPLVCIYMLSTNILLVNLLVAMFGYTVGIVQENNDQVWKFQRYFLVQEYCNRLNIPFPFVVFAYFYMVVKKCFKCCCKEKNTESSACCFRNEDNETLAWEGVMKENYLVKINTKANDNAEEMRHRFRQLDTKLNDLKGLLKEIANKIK
OBSERVABLE: pIC50
Numbers only, as −log10 of the molar value.

IN: Which pIC50 reading was recorded for the compound `Cc1ncccc1C(=O)N([C@@H]1CCc2c(F)cc(Cl)cc21)[C@@H](C(N)=O)c1ccccc1` ?
OUT: 7.10

----------
assay: Oral bioavailability in Sprague-Dawley rat at 3 mg/kg measured upto 6 hrs by LC-MS/MS analysis; type: ADME, organism-based; conditions: in vivo
OBSERVABLE: bioavailability (%)
Answers are plain numbers, in %.

IN: What value of measured bioavailability is listed for `Cc1ncccc1C(=O)N([C@@H]1CCc2c(F)cc(Cl)cc21)[C@@H](C(N)=O)c1ccccc1` ?
OUT: 55

----------
biological target: UniProt:P08684; assay: Inhibition of CYP3A4 in human liver microsomes assessed as reduction in 1'-hydroxymidazolam formation using midazolam as substrate at 10 uM preincubated with enzyme and NADPH followed by substrate addition and measured after 10 mins by HPLC/MS-MS analysis relative to control; assay type: ADME; conditions: probe midazolam (1'-hydroxymidazolam formation)
Sequence (P08684 whole entry): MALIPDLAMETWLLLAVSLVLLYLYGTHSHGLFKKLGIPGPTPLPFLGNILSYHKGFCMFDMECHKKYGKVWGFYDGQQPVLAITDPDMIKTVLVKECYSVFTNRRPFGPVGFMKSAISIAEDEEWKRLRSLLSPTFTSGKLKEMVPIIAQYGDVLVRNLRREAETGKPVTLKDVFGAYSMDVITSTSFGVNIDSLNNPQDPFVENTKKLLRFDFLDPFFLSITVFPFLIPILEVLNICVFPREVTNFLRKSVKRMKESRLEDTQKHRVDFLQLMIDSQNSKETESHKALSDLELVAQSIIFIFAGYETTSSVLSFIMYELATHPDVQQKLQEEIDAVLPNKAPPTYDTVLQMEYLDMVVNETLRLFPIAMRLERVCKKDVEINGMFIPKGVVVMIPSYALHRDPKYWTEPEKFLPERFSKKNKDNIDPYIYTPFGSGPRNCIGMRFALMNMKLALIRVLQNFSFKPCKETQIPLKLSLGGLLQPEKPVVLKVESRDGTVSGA
OBSERVABLE: inhibition at 10 min, 10 µM
Your answer should be a number followed by the unit of measure.

Guide cases for inhibition at 10 min, 10 µM, answers given:
compound_structure=COc1ncccc1C(=O)N([C@@H]1CCc2c(F)cc(Cl)cc21)[C@@H](C(N)=O)c1ccccc1 recorded_result=22%
compound_structure=Cc1ncccc1C(=O)N([C@@H]1CCc2c(F)cc(Cl)cc21)[C@@H](C(N)=O)c1ccccc1 recorded_result=17%
compound_structure=C[C@H](c1cc(F)cc(F)c1)N(C(=O)c1ccccc1)[C@@H](C(N)=O)c1ccccc1 recorded_result=27%

// for each compound in input: emit inhibition at 10 min, 10 µM
1. NC(=O)[C@@H](c1ccccc1)N(C(=O)c1cccnc1N)[C@@H]1CCc2c(F)cc(Cl)cc21
2. NC(=O)[C@@H](c1ccccc1)N(C(=O)c1cccnc1)[C@@H]1CCc2c(F)cc(Cl)cc21

OUT:
1: 18%; 2: 65%

----------
assay: Cmax in Sprague-Dawley rat at 3 mg/kg, po measured upto 6 hrs by LC-MS/MS analysis; type: ADME, organism-based; design: route oral, dose 3 mg/kg, time <=6; settings: in vivo
OBSERVABLE: Cmax (ng/mL)
One number for each entry, in ng/mL.

IN: I'd like to know its Cmax. The compound in question is `Cc1ncccc1C(=O)N([C@@H]1CCc2c(F)cc(Cl)cc21)[C@@H](C(N)=O)c1ccccc1`
OUT: 466

----------
test: Ratio of drug level in rat brain to plasma measured after 4 hrs; format: ADME, cell-free; details: read-out: BPR
OBSERVABLE: Kp at 4 h
Answers are plain numbers.

IN: Data request, read-out Kp at 4 h, for `C[C@H](c1cc(F)cc(F)c1)N(C(=O)c1ccccc1)[C@@H](C(N)=O)c1ccccc1`
OUT: 1.66
